Molecular target: Cyclin E1 (Homo sapiens, UniProt P24864+Q96SW2)
Sequence (P24864 whole entry): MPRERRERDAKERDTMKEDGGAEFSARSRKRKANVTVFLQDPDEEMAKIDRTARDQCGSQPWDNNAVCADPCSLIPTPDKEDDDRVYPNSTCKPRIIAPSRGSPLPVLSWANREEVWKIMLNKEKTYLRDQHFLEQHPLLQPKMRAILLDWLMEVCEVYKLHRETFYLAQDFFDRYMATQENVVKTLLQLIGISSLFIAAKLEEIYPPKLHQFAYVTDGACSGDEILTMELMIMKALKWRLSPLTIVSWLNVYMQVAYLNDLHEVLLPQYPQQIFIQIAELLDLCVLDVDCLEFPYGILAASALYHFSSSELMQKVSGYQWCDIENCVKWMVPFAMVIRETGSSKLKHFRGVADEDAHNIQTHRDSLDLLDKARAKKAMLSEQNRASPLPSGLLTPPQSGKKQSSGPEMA
Sequence (Q96SW2 whole entry): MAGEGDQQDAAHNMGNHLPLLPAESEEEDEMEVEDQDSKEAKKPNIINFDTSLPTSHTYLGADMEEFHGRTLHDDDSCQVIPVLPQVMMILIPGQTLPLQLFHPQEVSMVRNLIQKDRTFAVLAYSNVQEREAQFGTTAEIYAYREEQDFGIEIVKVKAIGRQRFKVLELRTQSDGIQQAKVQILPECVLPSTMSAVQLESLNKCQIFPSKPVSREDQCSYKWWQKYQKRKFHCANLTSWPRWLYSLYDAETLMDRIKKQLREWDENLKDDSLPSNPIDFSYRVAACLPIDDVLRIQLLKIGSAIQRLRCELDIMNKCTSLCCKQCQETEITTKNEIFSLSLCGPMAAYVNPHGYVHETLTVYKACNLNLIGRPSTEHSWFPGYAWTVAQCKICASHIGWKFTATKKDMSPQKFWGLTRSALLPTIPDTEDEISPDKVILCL
Sequence (Q16531 whole entry partner): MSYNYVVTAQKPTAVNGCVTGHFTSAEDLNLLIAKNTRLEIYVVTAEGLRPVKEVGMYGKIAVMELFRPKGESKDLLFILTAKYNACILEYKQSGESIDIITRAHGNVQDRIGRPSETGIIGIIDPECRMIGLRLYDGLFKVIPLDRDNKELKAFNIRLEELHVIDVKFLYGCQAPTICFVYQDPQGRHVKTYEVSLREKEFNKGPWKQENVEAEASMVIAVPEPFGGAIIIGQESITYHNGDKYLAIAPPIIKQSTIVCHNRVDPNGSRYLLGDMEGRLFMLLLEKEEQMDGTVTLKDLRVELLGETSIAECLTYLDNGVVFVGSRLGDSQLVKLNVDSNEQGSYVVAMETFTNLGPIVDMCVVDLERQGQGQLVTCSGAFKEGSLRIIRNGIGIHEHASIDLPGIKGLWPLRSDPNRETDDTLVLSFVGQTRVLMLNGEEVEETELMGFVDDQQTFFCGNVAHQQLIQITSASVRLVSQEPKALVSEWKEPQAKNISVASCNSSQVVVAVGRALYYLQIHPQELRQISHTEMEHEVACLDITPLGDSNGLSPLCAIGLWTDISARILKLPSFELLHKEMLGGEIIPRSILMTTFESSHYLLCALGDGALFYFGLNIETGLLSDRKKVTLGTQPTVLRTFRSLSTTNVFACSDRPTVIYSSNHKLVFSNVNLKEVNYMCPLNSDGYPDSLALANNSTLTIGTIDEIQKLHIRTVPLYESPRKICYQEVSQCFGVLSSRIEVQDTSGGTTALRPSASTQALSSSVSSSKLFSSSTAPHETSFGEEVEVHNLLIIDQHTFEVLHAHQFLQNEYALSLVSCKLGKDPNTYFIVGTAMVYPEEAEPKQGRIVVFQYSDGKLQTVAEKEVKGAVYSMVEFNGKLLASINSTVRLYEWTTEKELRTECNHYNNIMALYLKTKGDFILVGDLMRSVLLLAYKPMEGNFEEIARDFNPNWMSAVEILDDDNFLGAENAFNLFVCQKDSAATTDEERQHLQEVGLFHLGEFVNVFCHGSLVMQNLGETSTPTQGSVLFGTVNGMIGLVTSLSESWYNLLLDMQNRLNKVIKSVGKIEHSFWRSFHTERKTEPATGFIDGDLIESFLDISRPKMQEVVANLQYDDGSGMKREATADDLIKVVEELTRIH
Test: Cyclin E1 Cellular Degradation Assay (MSD)
Type: cell-based
Set-up: endogenous in cells; host or cells: OVCAR3
Details: selectivity for degradation of Cyclin E1 over GSPT1
MEASURED_METRIC: Ratio of GSPT1 DC50/Cyclin E1 DC50

Use the examples below as a reference point.
Per the records, this compound ( COc1c(COC(=O)Nc2ccc(Oc3ccc(F)c(F)c3)cc2)ccc2c1C(=O)N([C@H]1CCC(=O)NC1=O)C2 (single isomer, unassigned) ) has Ratio of GSPT1 DC50/Cyclin E1 DC50 equal to >88

Per the records, this compound ( COc1c(COC(=O)Nc2ccc(Oc3cc(F)c(F)cc3F)cc2)ccc2c1C(=O)N(C1CCC(=O)NC1=O)C2 (stereo not drawn) ) has Ratio of GSPT1 DC50/Cyclin E1 DC50 equal to >51

Now examine the next entry.
Per the records, this compound ( COc1c(COC(=O)Nc2ccc(C(F)(F)c3ccccc3)cc2)ccc2c1C(=O)N(C1CCC(=O)NC1=O)C2 (stereo not drawn) ) has Ratio of GSPT1 DC50/Cyclin E1 DC50 equal to >10

Reference for the values: patent US20250084056A1
